Attribution: ChEMBL document CHEMBL3526102

- test description: Drug excretion in Sprague-Dawley rat urine at 30 umol/kg, iv after 24 hrs by LC-MS analysis
- Type: ADME, organism-based
- applied conditions: read-out: Drug excretion
parameter: dose excreted at 24 h

Prompt: Field request: dose excreted at 24 h | item: [3H]c1cc(-c2c([3H])nc([3H])nc2[3H])cc([C@@]2(c3cc([3H])nc([3H])c3)N=C(N)c3c(F)cccc32)c1
Response: < 10%

---

- test description: Drug excretion in bile duct-cannulated Sprague-Dawley rat bile at 30 umol/kg, iv after 6 hrs by LC-MS analysis
- Assay type: ADME, organism-based
- applied conditions: read-out: Drug excretion
parameter: dose excreted at 6 h (%)
Expressed in %, but write only the number.

Prompt: Field request: dose excreted at 6 h | item: [3H]c1cc(-c2c([3H])nc([3H])nc2[3H])cc([C@@]2(c3cc([3H])nc([3H])c3)N=C(N)c3c(F)cccc32)c1
Response: 55
